Reported max response values follow for various molecules
Test system: KB-3-1
assay-procedure: Cytotoxic Profiling of Annotated Libraries Using Quantitative High-Throughput Screening (AID 1296008); note: % is set by controls: 0 for no effect and ±100 for the full control effect; nearly all actives have a fitted effect of over 60% in size
test-context: Five cell lines viability, CellTiter-Glo ATP luminescence, 48-72 h; active compounds read low
Inconclusive results are not listed.
Express the result in % but write the number alone.

CC(C)(Cc1ccc2ccccc2c1)NC[C@@H](O)COc1cccc(Cl)c1C#N 2.48

Value wanted: max response (KB-3-1) of entry "c1cc(-c2sc(-c3ccncc3)c(-c3ccncc3)c2-c2ccncc2)ccn1"
6.28

Form: Entry = "NS(=O)(=O)c1ccc(NC2=CC(=O)c3ccccc3C2=O)cc1" | System = KB-3-1 | max response = ____
7.69
